ASSAY SYSTEM: Fyn (UniProt P06241)
Sequence (P06241 whole entry, looked up): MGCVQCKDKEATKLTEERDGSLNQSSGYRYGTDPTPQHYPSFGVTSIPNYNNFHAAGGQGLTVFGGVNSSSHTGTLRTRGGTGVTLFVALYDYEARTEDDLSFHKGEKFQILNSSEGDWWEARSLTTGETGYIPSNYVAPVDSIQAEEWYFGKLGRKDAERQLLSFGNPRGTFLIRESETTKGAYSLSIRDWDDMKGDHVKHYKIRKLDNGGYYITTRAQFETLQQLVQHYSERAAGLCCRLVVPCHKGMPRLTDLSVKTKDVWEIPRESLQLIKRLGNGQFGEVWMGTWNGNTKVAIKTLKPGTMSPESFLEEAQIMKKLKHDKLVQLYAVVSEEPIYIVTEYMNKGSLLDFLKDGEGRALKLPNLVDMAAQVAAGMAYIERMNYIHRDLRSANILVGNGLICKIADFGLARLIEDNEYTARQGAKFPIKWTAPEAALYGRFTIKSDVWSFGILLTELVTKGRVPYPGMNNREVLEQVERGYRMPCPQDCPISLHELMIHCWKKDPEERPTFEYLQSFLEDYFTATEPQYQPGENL
PROCEDURE DETAILS: phosphorylation enrichment, bacterial display (enrichment ratio); higher = better substrate or ligand; peptides without Tyr show the background;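 note: 11-residue human phosphosite peptides and single-mutation variants displayed on the E. coli surface, counted by deep sequencing, each peptide's frequency after selection divided by its frequency in the unselected input library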;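 note: frequency after pTyr selection over input frequency; kinase dosed for 20-30% of maximal phosphorylation in three min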

ITEM SEQUENCE: RPYRPYIIRGM [LRP5_Y1531]
phosphorylation enrichment: 0.987
--
ITEM SEQUENCE: LNLKEYNLVGG [GNAQ_Y356]
phosphorylation enrichment: 0.529
--
ITEM SEQUENCE: AGITAYQSCLQ [ADGRA2_Y377]
phosphorylation enrichment: 0.633
--
ITEM SEQUENCE: TLNHQYDYTFH [CSNK1A1_Y292_D297H]
phosphorylation enrichment: 0.536
--
ITEM SEQUENCE: EDGFAYVPLKD [PRIM2_Y208]
phosphorylation enrichment: 0.479
--
ITEM SEQUENCE: FFIMMYTGSSV [DNAJC13_Y1131_N1135S]
phosphorylation enrichment: 0.316
--
ITEM SEQUENCE: RFLRGYRQHAF [HLA-A_Y137_D140H_YF]
phosphorylation enrichment: 0.648
--
ITEM SEQUENCE: SLALFYRNVYH [RBL1_Y792_K794N]
phosphorylation enrichment: 0.419
--
ITEM SEQUENCE: FGHTFYNQAIM [MCCC2_Y196_R193H]
phosphorylation enrichment: 0.465
--
ITEM SEQUENCE: CTTIHYNCMCN [TP53_Y234_Y236C]
phosphorylation enrichment: 0.45
--
ITEM SEQUENCE: AAFNRYDQERF [CDC73_Y293_YF]
phosphorylation enrichment: 0.469
--
ITEM SEQUENCE: DENWFYTRPAS [RPS19_Y54_A57P]
phosphorylation enrichment: 0.497
--
ITEM SEQUENCE: HSDFQYSQRSQ [PKP2_Y168_YF]
phosphorylation enrichment: 0.844
--
ITEM SEQUENCE: ECKEAYHEGEC [PRKN_Y372]
phosphorylation enrichment: 0.48
--
ITEM SEQUENCE: KKHFSYAWPFF [BRDT_Y291_YF]
phosphorylation enrichment: 0.428
--
ITEM SEQUENCE: SIIKDYFHRGT [GATM_Y203_A208T]
phosphorylation enrichment: 0.433
--
ITEM SEQUENCE: NFADPYRQLQF [CTNND2_Y503_YF]
phosphorylation enrichment: 0.473
--
ITEM SEQUENCE: NQDRTYYERVR [SPEN_Y632_S635R]
phosphorylation enrichment: 0.606
--
ITEM SEQUENCE: KKCTRYIDCAL [ASPA_Y64_D68A]
phosphorylation enrichment: 0.336
--
ITEM SEQUENCE: SSWPGYVRPLP [HSPB1_Y54]
phosphorylation enrichment: 0.52
--
ITEM SEQUENCE: PPTYRYERGSR [INPPL1_Y663]
phosphorylation enrichment: 0.449
--
ITEM SEQUENCE: FISVGYVDGTQ [HLA-B_Y51_D54G]
phosphorylation enrichment: 0.315

---

System: AncSZ
PROCEDURE DETAILS: phosphorylation enrichment, bacterial display (enrichment ratio); higher = better substrate or ligand; peptides without Tyr show the background
Output 1 for phosphorylation enrichment not less than 1; output 0 otherwise.

ITEM SEQUENCE: QMVRMYASSFM [AVPR2_Y124_G122R_YF]
ASSAY SYSTEM: AncSZ
LABEL CLASS: 1
//
ITEM SEQUENCE: STKELYEKFMI
ASSAY SYSTEM: AncSZ
LABEL CLASS: 0
//
ITEM SEQUENCE: TAPYNYSYIFK [RAB14_Y8]
ASSAY SYSTEM: AncSZ
LABEL CLASS: 1
//
ITEM SEQUENCE: PQGVGYPQQQQ [EP300_Y2219_P2221Q]
ASSAY SYSTEM: AncSZ
LABEL CLASS: 0
//
ITEM SEQUENCE: KVKEQYQDVPM [PKP2_Y659]
ASSAY SYSTEM: AncSZ
LABEL CLASS: 0
//
ITEM SEQUENCE: EDSEFYKAFEE [CASQ2_Y179_YF]
ASSAY SYSTEM: AncSZ
LABEL CLASS: 1
//
ITEM SEQUENCE: DQVEQCKKELE [LMNA_Y259_Y259C]
ASSAY SYSTEM: AncSZ
LABEL CLASS: 1
//
ITEM SEQUENCE: NTYEKYLGEEY [TF_Y669]
ASSAY SYSTEM: AncSZ
LABEL CLASS: 1
//
ITEM SEQUENCE: GIVEDYRPPFF [ACVRL1_Y421_YF]
ASSAY SYSTEM: AncSZ
LABEL CLASS: 0
//
ITEM SEQUENCE: SILTVYSKDNY [PANK2_Y400_A398T]
ASSAY SYSTEM: AncSZ
LABEL CLASS: 0

---

ASSAY SYSTEM: Fes (UniProt P07332)
Sequence (P07332 whole entry, looked up): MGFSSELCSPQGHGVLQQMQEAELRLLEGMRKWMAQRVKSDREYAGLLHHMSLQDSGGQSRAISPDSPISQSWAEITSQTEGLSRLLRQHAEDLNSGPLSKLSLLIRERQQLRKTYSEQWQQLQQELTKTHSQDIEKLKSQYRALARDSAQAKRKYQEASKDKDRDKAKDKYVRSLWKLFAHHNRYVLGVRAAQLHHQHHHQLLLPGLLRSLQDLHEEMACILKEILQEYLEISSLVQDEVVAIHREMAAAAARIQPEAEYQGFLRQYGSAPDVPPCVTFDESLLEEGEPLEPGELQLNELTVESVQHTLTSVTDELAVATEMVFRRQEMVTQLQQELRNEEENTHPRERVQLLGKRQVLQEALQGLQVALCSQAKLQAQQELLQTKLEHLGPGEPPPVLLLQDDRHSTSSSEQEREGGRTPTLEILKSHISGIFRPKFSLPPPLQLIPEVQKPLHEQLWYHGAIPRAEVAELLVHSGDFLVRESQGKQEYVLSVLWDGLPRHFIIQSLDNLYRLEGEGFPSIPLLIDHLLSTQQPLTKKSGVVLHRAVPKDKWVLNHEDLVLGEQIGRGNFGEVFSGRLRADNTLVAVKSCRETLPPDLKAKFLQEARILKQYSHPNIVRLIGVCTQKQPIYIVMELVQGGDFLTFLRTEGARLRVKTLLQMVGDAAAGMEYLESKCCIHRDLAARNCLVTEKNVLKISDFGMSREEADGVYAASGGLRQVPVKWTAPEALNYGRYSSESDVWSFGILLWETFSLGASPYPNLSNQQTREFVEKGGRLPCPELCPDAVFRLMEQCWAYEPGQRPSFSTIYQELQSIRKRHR
PROCEDURE DETAILS: phosphorylation enrichment, bacterial display (enrichment ratio); higher = better substrate or ligand; peptides without Tyr show the background
Output 1 (yes) for phosphorylation enrichment not less than 0.8; output 0 (no) otherwise.

ITEM SEQUENCE: PVQAASQKVVA [HBB_Y131_Y131S]
LABEL CLASS: 1 (yes)
--
ITEM SEQUENCE: LSGFCYRLSDQ [PDCD6_Y124_G123C]
LABEL CLASS: 1 (yes)
--
ITEM SEQUENCE: CRERPYGGGGG [FUS_Y526_R521C]
LABEL CLASS: 1 (yes)
--
ITEM SEQUENCE: PECEWYKNGVK [TTN_Y2112]
LABEL CLASS: 1 (yes)
--
ITEM SEQUENCE: LDYNEYFRYLN [HPRT1_Y198_D201Y]
LABEL CLASS: 1 (yes)
--
ITEM SEQUENCE: SNYRAYATEPH [TNNI3_Y29]
LABEL CLASS: 0 (no)
--
ITEM SEQUENCE: KPSLKYVTYGN [GALNTL5_Y404_G401S]
LABEL CLASS: 0 (no)
--
ITEM SEQUENCE: GGDAVYTNGAI [RFX2_Y82]
LABEL CLASS: 0 (no)
--
ITEM SEQUENCE: KSLSQYLEMDK [CAGE1_Y438_V435L]
LABEL CLASS: 1 (yes)
--
ITEM SEQUENCE: LWQSIYNLDAE [TNNT2_Y251_E254D]
LABEL CLASS: 1 (yes)
--
ITEM SEQUENCE: DDEESYENVPR [FCRL3_Y722_N721S]
LABEL CLASS: 1 (yes)
--
ITEM SEQUENCE: DYDHSYYFIAT [ESD_Y262_G257D]
LABEL CLASS: 1 (yes)
--
ITEM SEQUENCE: IATTIYSGDKI [UGGT2_Y823_A821T]
LABEL CLASS: 0 (no)
--
ITEM SEQUENCE: SIIKDYFHRGT [GATM_Y203_A208T]
LABEL CLASS: 0 (no)
--
ITEM SEQUENCE: SNKLYYQLEQE [PDPR_Y110]
LABEL CLASS: 1 (yes)
--
ITEM SEQUENCE: IEEGTYGVAYR [CDK11B_Y449_V452A]
LABEL CLASS: 1 (yes)
--
ITEM SEQUENCE: KLKRSYCSPDI [USP8_Y717_S718C]
LABEL CLASS: 0 (no)
--
ITEM SEQUENCE: LMIEEYLTKEP [BAG3_Y457_L462P]
LABEL CLASS: 1 (yes)
--
ITEM SEQUENCE: KDFNKYVAYIE [KDM4B_Y31]
LABEL CLASS: 0 (no)
--
ITEM SEQUENCE: EESREYDRLYE [PIK3R1_Y463_K459E]
LABEL CLASS: 1 (yes)
--
ITEM SEQUENCE: NQDRTYYERVR [SPEN_Y632_S635R]
LABEL CLASS: 0 (no)
--
ITEM SEQUENCE: ALAHKYHGGGG [HBB_Y146]
LABEL CLASS: 0 (no)
--
ITEM SEQUENCE: GGSSPYSRRLA [CDK13_Y351_P356A]
LABEL CLASS: 0 (no)
--
ITEM SEQUENCE: RVEDAYILTCN [CCT6A_Y229]
LABEL CLASS: 1 (yes)
--
ITEM SEQUENCE: TRVMEYISCLD [CLTCL1_Y1043_R1046C]
LABEL CLASS: 1 (yes)
--
ITEM SEQUENCE: ADCRYYTFPQM [GAMT_Y223_A224T]
LABEL CLASS: 1 (yes)
--
ITEM SEQUENCE: CLMILYRLKER [PTPRR_Y249]
LABEL CLASS: 1 (yes)
--
ITEM SEQUENCE: CTTIHYNCMCN [TP53_Y234_Y236C]
LABEL CLASS: 1 (yes)
--
ITEM SEQUENCE: FQEPVYSVAFS [TBL1X_Y509_H504Y_YF]
LABEL CLASS: 1 (yes)
--
ITEM SEQUENCE: SHLEDYPFNAE [AKR1B10_Y310]
LABEL CLASS: 1 (yes)
--
ITEM SEQUENCE: GAALAYGLDKS [HSPA9_Y230_A225G]
LABEL CLASS: 0 (no)
--
ITEM SEQUENCE: GQSKGYRPKLF [SIPA1L3_Y1376_YF]
LABEL CLASS: 1 (yes)
--
ITEM SEQUENCE: CEDMEYLESKQ [BTK_Y511_A508D]
LABEL CLASS: 1 (yes)
--
ITEM SEQUENCE: FSQETYFRVSN [ABCD1_Y180_Q178E_YF]
LABEL CLASS: 1 (yes)
--
ITEM SEQUENCE: SSWPGYVRPLP [HSPB1_Y54]
LABEL CLASS: 0 (no)
--
ITEM SEQUENCE: YQEPVYSVAFS [TBL1X_Y509_H504Y]
LABEL CLASS: 1 (yes)
--
ITEM SEQUENCE: DNAFQYMLTDR [MYH7_Y164_YF]
LABEL CLASS: 1 (yes)
--
ITEM SEQUENCE: SSAAGYACLAY [MVD_Y131]
LABEL CLASS: 1 (yes)
--
ITEM SEQUENCE: DGDTRYSTFSE [TKTL1_Y318]
LABEL CLASS: 1 (yes)
--
ITEM SEQUENCE: PSSNLYFRWLT [CNGA3_Y168_YF]
LABEL CLASS: 1 (yes)
--
ITEM SEQUENCE: HLAQRYLIWEC [SCN5A_Y694_R689H]
LABEL CLASS: 1 (yes)
--
ITEM SEQUENCE: VKMLPYTEVTR [GDI1_Y93_L92P]
LABEL CLASS: 0 (no)
--
ITEM SEQUENCE: GVFSRYFTTFD [CLCA1_Y661_YF]
LABEL CLASS: 1 (yes)
--
ITEM SEQUENCE: ALVDTYCRHNY [HLA-DRB1_Y107_A103L]
LABEL CLASS: 0 (no)
--
ITEM SEQUENCE: PKGTGYIKTES [STAT1_Y701_L706S]
LABEL CLASS: 1 (yes)
--
ITEM SEQUENCE: CTTIHYNFMFN [TP53_Y234_C238F_YF]
LABEL CLASS: 1 (yes)
--
ITEM SEQUENCE: TSQSQYSSFRE [CCDC170_Y323_F324S]
LABEL CLASS: 0 (no)
--
ITEM SEQUENCE: GSPPPYRRRKR [MBD1_Y403]
LABEL CLASS: 0 (no)
--
ITEM SEQUENCE: IGEGTYGVVFK [CDK2_Y15_YF]
LABEL CLASS: 1 (yes)
--
ITEM SEQUENCE: QEALEYFMKQI [PIK3CA_Y1038_M1043I]
LABEL CLASS: 1 (yes)
--
ITEM SEQUENCE: DAASNYARGHY [TUBA3E_Y103]
LABEL CLASS: 0 (no)
